Data provenance is the NIST ThermoML archive (doi:10.1016/j.fluid.2012.06.020).

test_settings: 293.15 K; 101.33 kPa; Liquid; Pycnometric method
readout_kind: mass density (kg/m3)

# smiles_structure, readout_kind, value
data = [
    ("CCCCC(=O)O", "mass density", 932.5),
    ("O", "mass density", 999.9),
    ("CCC(=O)O", "mass density", 988.1),
    ("O=CO", "mass density", 1218.5),
    ("CCCCCCCCCCCO", "mass density", 829.2),
    ("CC(=O)O", "mass density", 1044.3),
]

----------
test_settings: Liquid; Fischer Boiling Apparatus
readout_kind: Normal boiling temperature (°C)

# smiles_structure, result_unit, Normal boiling temperature
rows = [
    ("CCCCC(=O)O", "°C", 186.00),
    ("O=CO", "°C", 101.1),
    ("CCC(=O)O", "°C", 141.1),
    ("CC(=O)O", "°C", 117.80),
]

(A) O
(B) CCCCCCCCCCCO
Request: Smaller Normal boiling temperature value, A vs B ? Which one? Tell me its label.
Response: A
(A: 100.1 °C, B: 245.1 °C)
